Tested on: HCT-116
Assay: NCI tumour cell line growth inhibition, 48 h
The source made the active and inactive calls. Cut-off read from the data, not from the text of the source: active = GI50 up to about 1.1 µM and inactive = higher.
Your answer must be one of the following: active, inactive

COc1ccc2c(c1)/C(=C\c1c(Cl)[nH]c3cc(C)c(OC)cc13)C(=O)N2 = active
Cc1cc(O)c(C(c2ccncc2)c2c(O)cc(C)[nH]c2=O)c(=O)[nH]1 = inactive
OC(CC(O)(C(F)(F)F)C(F)(F)F)C(O)c1ccco1 (stereo unspecified) = inactive
Cc1cc2occ(S(=O)(=O)NC(=O)Nc3ccc(Cl)cc3)c(=O)c2c(=O)o1 = inactive
CCOC(=O)c1c(-c2ccccc2)oc(=O)c(Cc2cccc3cccnc23)c1-c1ccccc1 = inactive
CC(=O)OCc1cc2ccccc2nc1C(Br)(Br)Br = inactive
COc1ccc(CCCC(=O)O)c(C)c1 = inactive
O=C(NNC(=S)Nc1ccccc1)c1csc(NC(=S)NC2CCCCC2)n1 = inactive
CCN(CCCl)c1ccc(NC(=O)c2cc(C(=O)NCCN(C)C)cc(C(=O)Nc3ccc(N(CC)CCCl)cc3)c2)cc1 = inactive
CCC12C=CCN(CCc3c([nH]c4ccccc34)/C=C\1)C2 (stereo unspecified) = inactive

Please state the recorded outcome for this compound: Cc1ccc([N+](=O)[O-])cc1S(=O)(=O)Nc1ccc(C2=NN(C(=O)c3ccccc3)C(c3ccccc3O)C2)cc1 (stereo unspecified)
inactive

Same question for "CCCCC(CCCC)=NNC(=S)SC" please.
inactive

Same question for "CC1=CC(=C(c2ccc(N)c(C)c2)c2ccc(N)c(C)c2)C=CC1=N" please.
inactive

Same question for C=C(Br)C(Br)(CCl)CCC(Cl)C(C)C.C=C(Cl)C(Br)(CCl)CCC(Cl)C(C)C (stereo unspecified) please.
inactive

Same question for OCC1OC(n2ccc3cnccc32)CC1O (stereo unspecified) please.
inactive

Same question for COC(=O)C(=O)C(C(=O)C(=O)Nc1ccccc1[N+](=O)[O-])c1nc2ccc([N+](=O)[O-])cc2nc1O (stereo unspecified) please.
inactive

Same question for CCN1C(=O)c2ccccc2C1(O)c1ccc(Cl)cc1 (stereo unspecified) please.
inactive

Same question for "O=c1c2ccccc2nc(-c2ccccc2)n1O" please.
inactive
